# target-or-test-system: CFTR (Homo sapiens)
# assay-remarks: Membrane Potential Dye, Enteroid Assay A
# Assay type: cell-based
# measurement-setup: Table 8; read-out: Ent. A EC50
pEC50: −log10 of the molar value.
Could you please report measured pEC50 for the items listed next?

Recorded pEC50 (compound Cc1cccc(C)c1-c1cc2nc(n1)NS(=O)(=O)c1cccc(c1)C(=O)NCC(c1ccc3ccccc3c1)O2 (stereo not drawn) [Compound 253] ): > 6.00

Recorded pEC50 (compound Cc1cccc(C)c1-c1cc2nc(n1)NS(=O)(=O)c1cccc(c1)C(=O)N[C@@H]1Cc3ccccc3[C@@H]1O2 (stereo in doubt) [Compound 246] ): > 6.00

Recorded pEC50 (compound CC(C)C[C@@H]1COc2cc(C3C(C)CCCC3C)nc(n2)NS(=O)(=O)c2cccc(c2)C(=O)N1 (stereo partly drawn) [Compound 301] ): 4.52 to 5.52

Recorded pEC50 (compound Cc1cccc(C)c1-c1cc2nc(n1)NS(=O)(=O)c1cccc(c1)C(=O)NCC(c1ccc(Br)cc1)O2 (single isomer, unassigned) [Compound 20] ): > 6.00

Recorded pEC50 (compound CCC(C)(C)c1ccc(C2CNC(=O)c3cccc(c3)S(=O)(=O)Nc3nc(cc(-c4c(C)cccc4C)n3)O2)cc1 (stereo not drawn) [Compound 153] ): 4.52 to 5.52

Recorded pEC50 (compound Cc1cccc(C)c1-c1cc2nc(n1)NS(=O)(=O)c1cccc(c1)C(=O)NCC(c1ccc(C(C)C)cc1)O2 (stereo not drawn) [Compound 272] ): 5.52 to 6.00

###

# target-or-test-system: CFTR (Homo sapiens, UniProt P13569)
# Sequence (P13569 with tags, fused parts or gaps DEL508-508): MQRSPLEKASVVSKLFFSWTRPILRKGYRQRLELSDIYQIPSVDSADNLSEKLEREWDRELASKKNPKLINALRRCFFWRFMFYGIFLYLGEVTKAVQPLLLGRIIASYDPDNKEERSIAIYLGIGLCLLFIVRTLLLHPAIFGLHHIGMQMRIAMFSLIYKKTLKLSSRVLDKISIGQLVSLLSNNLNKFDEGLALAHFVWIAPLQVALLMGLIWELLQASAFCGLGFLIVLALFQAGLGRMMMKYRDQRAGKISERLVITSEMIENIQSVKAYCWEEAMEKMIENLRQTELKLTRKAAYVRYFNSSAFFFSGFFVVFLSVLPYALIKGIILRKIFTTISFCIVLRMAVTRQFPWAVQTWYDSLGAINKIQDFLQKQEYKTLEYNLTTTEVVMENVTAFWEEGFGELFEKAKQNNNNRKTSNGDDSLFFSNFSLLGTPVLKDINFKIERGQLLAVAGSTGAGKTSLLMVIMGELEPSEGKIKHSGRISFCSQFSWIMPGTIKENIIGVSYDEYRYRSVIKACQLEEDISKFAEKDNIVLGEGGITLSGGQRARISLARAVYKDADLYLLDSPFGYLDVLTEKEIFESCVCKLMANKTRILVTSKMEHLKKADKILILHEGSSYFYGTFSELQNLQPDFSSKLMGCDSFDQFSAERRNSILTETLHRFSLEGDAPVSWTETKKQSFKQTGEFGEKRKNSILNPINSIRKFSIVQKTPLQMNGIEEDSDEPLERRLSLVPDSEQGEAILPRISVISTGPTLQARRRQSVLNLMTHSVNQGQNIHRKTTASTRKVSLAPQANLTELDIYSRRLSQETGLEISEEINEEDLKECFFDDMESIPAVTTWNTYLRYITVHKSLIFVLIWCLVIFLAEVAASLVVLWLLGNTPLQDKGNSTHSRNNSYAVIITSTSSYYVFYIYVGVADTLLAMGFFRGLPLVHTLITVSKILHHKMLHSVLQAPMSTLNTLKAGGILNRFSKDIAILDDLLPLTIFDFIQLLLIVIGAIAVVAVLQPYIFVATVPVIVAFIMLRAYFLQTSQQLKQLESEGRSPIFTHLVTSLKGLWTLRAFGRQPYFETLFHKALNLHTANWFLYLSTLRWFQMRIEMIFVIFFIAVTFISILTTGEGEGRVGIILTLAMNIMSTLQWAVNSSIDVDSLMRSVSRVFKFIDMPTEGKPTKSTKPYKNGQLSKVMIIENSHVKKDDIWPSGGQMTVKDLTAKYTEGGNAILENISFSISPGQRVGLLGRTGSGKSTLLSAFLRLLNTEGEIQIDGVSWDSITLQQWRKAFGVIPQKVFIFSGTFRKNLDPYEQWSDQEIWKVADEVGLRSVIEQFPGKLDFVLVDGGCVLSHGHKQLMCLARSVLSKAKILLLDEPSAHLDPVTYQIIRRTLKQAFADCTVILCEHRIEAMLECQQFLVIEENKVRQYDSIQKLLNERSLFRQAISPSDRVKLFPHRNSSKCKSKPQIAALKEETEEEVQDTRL
# assay-remarks: Membrane Potential Dye, Enteroid Assay A
# Assay type: cell-based
# measurement-setup: Table 9; read-out: Ent. A EC50
# Protocol: Base medium (ADF+++) consisted of Advanced DMEM/Ham's F12, 2 mM Glutamax, 10 mM HEPES, […] penicillin/streptomycin. Bath 1 Buffer consisted of 1 mM MgCl2, 160 mM NaCl, 4.5 mM KCl, 10 mM HEPES, 10 mM Glucose, 2 mM CaCl2). […] Briefly, cells were washed 5 times in Bath 1 Buffer. […] Chloride transport was initiated by addition of Chloride Free Dye Stimulation Solution and the fluorescence signal was read for 15 min. […]
measure: EC50

Recorded EC50 (molecule Cc1cccc(C)c1-c1cc2nc(n1)NS(=O)(=O)c1cccc(c1)C(=O)N[C@@H]1CN(CCC3(C(F)(F)F)CC3)C[C@H]1O2 ): < 1000 nM

Recorded EC50 (molecule Cc1cccc(C)c1-c1cc2nc(n1)NS(=O)(=O)c1cccc(c1)C(=O)NCC(c1ccc(C3(C)CC3)cc1)O2 (stereo not shown) ): < 1000 nM

Recorded EC50 (molecule Cc1cccc(C)c1-c1cc2nc(n1)NS(=O)(=O)c1cccc(c1)C(=O)N[C@@H]1CN(Cc3ccc(C(F)(F)F)cc3)C[C@H]1O2 ): < 1000 nM

Recorded EC50 (molecule CCCCC1(CCCC)COc2cc(-c3c(C)cccc3C)nc(n2)NS(=O)(=O)c2cccc(c2)C(=O)N1 ): < 1000 nM

###

Could you please report measured pEC50 for the items listed next?
# target-or-test-system: CFTR (Homo sapiens, UniProt P13569)
# assay-remarks: Membrane Potential Dye, Enteroid Assay B
# Assay type: cell-based
# measurement-setup: Table 9; read-out: Ent. B EC50
# Protocol: Base medium (ADF+++) consisted of Advanced DMEM/Ham's F12, 2 mM Glutamax, 10 mM HEPES, […] penicillin/streptomycin. Bath 1 Buffer consisted of 1 mM MgCl2, 160 mM NaCl, 4.5 mM KCl, 10 mM HEPES, 10 mM Glucose, 2 mM CaCl2). […] Briefly, cells were washed 5 times in Bath 1 Buffer. […] Chloride transport was initiated by addition of Chloride Free Dye Stimulation Solution and the fluorescence signal was read for 15 min.
pEC50: −log10 of the molar value.

Recorded pEC50 (molecule Cc1cccc(C)c1-c1cc2nc(n1)NS(=O)(=O)c1cccc(c1)C(=O)N[C@H](CC(C)C)[C@@H](c1ccc(C(C)(C)C)cc1)O2 (single isomer, unassigned) ): > 6.00

Recorded pEC50 (molecule Cc1cccc(C)c1-c1cc2nc(n1)NS(=O)(=O)c1cccc(c1)C(=O)NC[C@H](c1ccc(C[Si](C)(C)C)cc1)O2 (stereo in doubt) [Compound 125] ): > 6.00

Recorded pEC50 (molecule Cc1cccc(C)c1-c1cc2nc(n1)NS(=O)(=O)c1cccc(c1)C(=O)N[C@H](C)[C@H](C)O2 [Compound 483] ): 5.52 to 6.00

Recorded pEC50 (molecule Cc1cccc(C)c1-c1cc2nc(n1)NS(=O)(=O)c1cccc(c1)C(=O)N[C@@H]1CN(Cc3ccc(C(C)(C)C)cc3)C[C@H]1O2 ): > 6.00

Recorded pEC50 (molecule Cc1cccc(C)c1-c1cc2nc(n1)NS(=O)(=O)c1cccc(c1)C(=O)N[C@@H]1CN(c3ncc(C(F)(F)F)cn3)C[C@H]1O2 ): > 6.00

Recorded pEC50 (molecule Cc1cccc(C)c1-c1cc2nc(n1)NS(=O)(=O)c1cccc(c1)C(=O)NC[C@H](c1ccc(CC[Si](C)(C)C)cc1)O2 (stereo in doubt) [Compound 123] ): > 6.00

Recorded pEC50 (molecule Cc1cccc(C)c1-c1cc2nc(n1)NS(=O)(=O)c1cc(n(C)n1)C(=O)N[C@H](CC(C)(C)C)CO2 ): > 6.00

Recorded pEC50 (molecule Cc1cccc(C)c1-c1cc2nc(n1)NS(=O)(=O)c1cccc(c1)C(=O)N[C@@H]1CN(Cc3ccccc3)C[C@H]1O2 ): > 6.00

Recorded pEC50 (molecule Cc1cccc(C)c1-c1cc2nc(n1)NS(=O)(=O)c1cccc(c1)C(=O)NC[C@H](c1ccc(CCC(C)(C)C)cc1)O2 (stereo in doubt) ): > 6.00

Recorded pEC50 (molecule Cc1cccc(C)c1-c1cc2nc(n1)NS(=O)(=O)c1cc(n(C)n1)C(=O)N[C@H](CC(C)C)CO2 ): 5.52 to 6.00

Recorded pEC50 (molecule Cc1cccc(C)c1-c1cc2nc(n1)NS(=O)(=O)c1cccc(c1)C(=O)NC[C@H](CC(C)C)CO2 (stereo in doubt) ): > 6.00

Recorded pEC50 (molecule Cc1cccc(C)c1-c1cc2nc(n1)NS(=O)(=O)c1cccc(c1)C(=O)N[C@@H]1CN(C3CC4(CCCCC4)C3)C[C@H]1O2 ): > 6.00
